# Experimental system: aldehyde dehydrogenase (ADH) (Ketogulonicigenium vulgare)
# Measurement description: Substrate specificity of the ADH
# Condition summary: read-out: Relative activity (%)
Note to self: use Y only for activity at 100000 µM readings below 60%; a reading exactly at 60% still gets N.

Take a look at these entries with their results.
| Compound | Experimental system | Cat |
| --- | --- | --- |
| O=C(CO)[C@@H](O)[C@H](O)[C@@H](O)CO | aldehyde dehydrogenase (ADH) (Ketogulonicigenium vulgare) | Y |
| O=C[C@H](O)[C@H](O)[C@H](O)CO | aldehyde dehydrogenase (ADH) (Ketogulonicigenium vulgare) | Y |
| CCCO | aldehyde dehydrogenase (ADH) (Ketogulonicigenium vulgare) | Y |

Asked: Decide: activity at 100000 µM of O=CC(=O)[C@@H](O)[C@H](O)[C@@H](O)CO strictly below 60%?
Given back: N

Asked: Determine if O=C[C@H](O)[C@@H](O)[C@H](O)[C@H](O)CO shows activity at 100000 µM strictly lower than 60%.
Given back: N

Asked: Is activity at 100000 µM of O=CC(=O)[C@@H](O)[C@H](O)[C@H](O)CO strictly below 60%?
Given back: N

Asked: Take the compound O=CC(O)CO (racemic) and say whether its activity at 100000 µM is less than 60%.
Given back: N

Asked: For O=C(CO)[C@@H](O)[C@H](O)[C@H](O)CO , is the recorded activity at 100000 µM below the cut-off of 60%?
Given back: Y

Asked: Below 60% on activity at 100000 µM? Entry O=C[C@@H](O)[C@@H](O)[C@H](O)[C@H](O)CO
Given back: N

Asked: Regarding OC[C@@H](O)[C@@H](O)[C@H](O)[C@@H](O)CO , kindly confirm whether its activity at 100000 µM is beneath 60%.
Given back: Y

Asked: Is 60% strictly greater than the compound's reported activity at 100000 µM? compound: CC(C)O
Given back: Y

* * *

# Experimental system: aldehyde dehydrogenase (ADH) (Ketogulonicigenium vulgare)
# Sequence (F9Y7W8 1-429): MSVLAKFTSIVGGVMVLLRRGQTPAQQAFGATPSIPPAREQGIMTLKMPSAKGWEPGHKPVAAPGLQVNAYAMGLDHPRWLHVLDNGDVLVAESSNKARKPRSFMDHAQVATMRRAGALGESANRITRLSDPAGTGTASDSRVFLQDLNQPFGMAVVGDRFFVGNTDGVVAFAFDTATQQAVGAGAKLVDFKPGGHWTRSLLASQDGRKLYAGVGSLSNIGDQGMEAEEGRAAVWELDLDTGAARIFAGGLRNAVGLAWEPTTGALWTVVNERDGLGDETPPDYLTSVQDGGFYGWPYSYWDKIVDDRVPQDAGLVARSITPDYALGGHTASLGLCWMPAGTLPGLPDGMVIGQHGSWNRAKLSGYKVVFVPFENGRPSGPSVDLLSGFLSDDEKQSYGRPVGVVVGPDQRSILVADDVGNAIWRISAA
# Measurement description: Effects of metal ions, enzyme inhibitors and PQQ on the activity of ADH
# Type: biochemical, Gluconobacter oxydans DSM 4025 (FERM BP-3812)
# Condition summary: metal 0.19 mM; None = 100
# Relative activity (%) listing for each entry below
Write the numeric value and append its unit.

| Record smiles | Relative activity (%) |
| --- | --- |
| [Cl][Ti]([Cl])([Cl])[Cl] | 100% |
| O.O.O.O.O=[N+]([O-])[O-].O=[N+]([O-])[O-].[Ca+2] | 450% |
| O.O.O.O.O.O.O.O=S(=O)([O-])[O-].[Mg+2] | 79.3% |
| O.O.O.O.O.O.[Cl][Cu][Cl] | 50% |

Asked: Relative activity (%) for O.O.O.O.O.O.O.O=S(=O)([O-])[O-].[Cu+2] ?
Given back: 100%

Asked: Using the record for O.O.[Na+].[Na+].[O]=[Mo](=[O])([O-])[O-] , report its Relative activity (%).
Given back: 69.7%

Asked: # query: Relative activity (%) of entry [Cl-].[Cl-].[Zn+2]
Given back: 36.1%
